- tgt: human progesterone receptor (PR) (Homo sapiens, UniProt P06401)
- Sequence (P06401 whole entry): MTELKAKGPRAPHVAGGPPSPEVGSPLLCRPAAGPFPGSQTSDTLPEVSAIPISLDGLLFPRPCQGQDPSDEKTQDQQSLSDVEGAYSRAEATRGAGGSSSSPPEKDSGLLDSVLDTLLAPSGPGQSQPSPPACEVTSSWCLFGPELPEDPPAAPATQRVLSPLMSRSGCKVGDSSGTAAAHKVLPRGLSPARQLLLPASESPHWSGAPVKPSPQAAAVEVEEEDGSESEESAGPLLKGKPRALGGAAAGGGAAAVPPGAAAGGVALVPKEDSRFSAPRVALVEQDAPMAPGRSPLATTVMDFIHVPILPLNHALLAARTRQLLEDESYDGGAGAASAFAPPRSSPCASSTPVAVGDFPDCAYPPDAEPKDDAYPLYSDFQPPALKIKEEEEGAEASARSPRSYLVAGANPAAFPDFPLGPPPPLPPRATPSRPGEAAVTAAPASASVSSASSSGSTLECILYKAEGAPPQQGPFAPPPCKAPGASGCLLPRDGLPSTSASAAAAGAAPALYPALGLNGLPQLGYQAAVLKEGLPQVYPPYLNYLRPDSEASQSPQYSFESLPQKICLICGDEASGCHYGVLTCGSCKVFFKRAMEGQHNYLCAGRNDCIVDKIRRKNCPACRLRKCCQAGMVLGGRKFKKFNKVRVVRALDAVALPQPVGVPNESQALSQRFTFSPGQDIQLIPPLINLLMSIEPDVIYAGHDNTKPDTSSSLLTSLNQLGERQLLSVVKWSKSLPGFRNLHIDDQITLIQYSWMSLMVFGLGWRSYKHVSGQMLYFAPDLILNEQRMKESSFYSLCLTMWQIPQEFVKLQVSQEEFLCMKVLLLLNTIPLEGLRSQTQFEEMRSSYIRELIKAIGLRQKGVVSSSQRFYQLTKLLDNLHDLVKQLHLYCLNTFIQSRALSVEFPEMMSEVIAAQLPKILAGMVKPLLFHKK
- measurement.description: PR CTF assay (co-transfected HEK293 cells, GRE-luciferase reporter)
- experimental.parameters: antagonist mode, with 0.05-0.08 nM R5020, 24 h
pIC50: −log10 of the molar value.
assay.readout: pIC50

Q) Please look at this compound and report its pIC50: CC(C)n1cc(-c2ccc(C#N)nc2)c2ccc(NS(C)(=O)=O)cc21 [Example 48]
A) ~7.93

====

- tgt: human AR (androgen receptor) (Homo sapiens)
- Sequence (P10275 whole entry): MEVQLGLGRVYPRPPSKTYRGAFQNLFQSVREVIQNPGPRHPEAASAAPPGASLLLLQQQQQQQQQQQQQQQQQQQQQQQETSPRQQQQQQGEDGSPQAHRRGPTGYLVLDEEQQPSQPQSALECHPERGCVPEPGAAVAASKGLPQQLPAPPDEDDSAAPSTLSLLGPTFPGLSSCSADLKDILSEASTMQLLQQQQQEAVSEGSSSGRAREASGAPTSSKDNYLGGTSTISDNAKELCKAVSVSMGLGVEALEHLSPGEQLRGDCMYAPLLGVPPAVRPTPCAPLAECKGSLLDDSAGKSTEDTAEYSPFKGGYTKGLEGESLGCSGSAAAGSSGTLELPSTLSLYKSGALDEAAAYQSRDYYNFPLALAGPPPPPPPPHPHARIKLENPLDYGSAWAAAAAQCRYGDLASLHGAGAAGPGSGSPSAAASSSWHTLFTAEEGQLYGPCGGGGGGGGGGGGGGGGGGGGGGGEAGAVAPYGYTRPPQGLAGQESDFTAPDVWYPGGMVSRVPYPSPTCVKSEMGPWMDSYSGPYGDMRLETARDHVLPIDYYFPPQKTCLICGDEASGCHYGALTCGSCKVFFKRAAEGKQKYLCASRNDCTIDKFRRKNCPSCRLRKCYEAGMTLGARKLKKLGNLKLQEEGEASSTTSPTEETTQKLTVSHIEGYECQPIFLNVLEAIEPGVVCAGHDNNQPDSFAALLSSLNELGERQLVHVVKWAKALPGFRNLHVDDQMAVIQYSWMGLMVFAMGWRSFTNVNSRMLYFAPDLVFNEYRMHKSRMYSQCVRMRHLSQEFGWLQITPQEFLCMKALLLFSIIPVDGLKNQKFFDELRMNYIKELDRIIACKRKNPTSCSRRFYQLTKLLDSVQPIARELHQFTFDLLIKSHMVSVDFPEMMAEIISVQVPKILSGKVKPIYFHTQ
- measurement.description: AR competition binding assay (HEK293 cell lysate)
- experimental.parameters: 0.36 nM 3H-methyltrienolone, 293-AR lysate
pKi: −log10 of the molar value.
assay.readout: pKi

Please review the entries below; each comes with its answer.
Q) Provide measured pKi value, entry: CC(C)n1cc(-c2ccc(C#N)cc2)c2ccc(NS(=O)(=O)N3CCOCC3)cc21
A) < 6.00

Q) Hello, please tell me recorded pKi for this one: CS(=O)(=O)Nc1ccc2c(-c3ccc(C#N)cc3)cn(Cc3ccccc3)c2c1
A) < 6.00

Q) Fill in reported pKi for this entry: COc1ccc(-c2cn(C(C)C)c3cc(NS(C)(=O)=O)ccc23)cc1C
A) < 6.00

New cases:
Q) Write down pKi measured for item CC(C)n1cc(-c2ccc(C#N)cc2)c2ccc(NS(=O)(=O)C(F)(F)F)cc21
A) < 6.00

Q) Give the reported pKi for this compound. CC(C)n1cc(-c2ccc3oc(=O)ccc3c2)c2ccc(NS(C)(=O)=O)cc21
A) < 6.00

Q) Look up and report measured pKi for this entry: CC(C)n1cc(-c2ccc(Cl)cc2)c2ccc(NS(C)(=O)=O)cc21
A) 6.00 to 6.30

Q) Please give measured pKi of the following entry: CC(C)n1cc(-c2ccc(C=NO)cc2)c2ccc(NS(C)(=O)=O)cc21
A) 6.30 to 7.00

Q) Give reported pKi value for CS(=O)(=O)Nc1ccc2c(-c3ccc(C#N)cc3)cn(CC3CCCCC3)c2c1
A) 6.30 to 7.00

====

- Test system: uterine endometrial transformation
- measurement.description: McPhail Assay
- Type: in vivo, New Zealand White Rabbits
- experimental.parameters: rabbits, 10 mpk, in combination with progesterone on days 7-12, antagonist mode
assay.readout: McPhail Index** @ 10 mpk (Antagonist Mode)

Q) Determine from records and report McPhail Index** @ 10 mpk (Antagonist Mode) for CC(C)n1cc(-c2ccc(C#N)nc2)c2ccc(NS(C)(=O)=O)cc21 [Example 48]
A) + (+ <2)

Q) Provide one value: measured McPhail Index** @ 10 mpk (Antagonist Mode) of CCCCn1cc(-c2ccc(C#N)c(F)c2)c2ccc(NS(C)(=O)=O)cc21 [Example 53]
A) +++ (+++ ≧3)

Q) Give recorded McPhail Index** @ 10 mpk (Antagonist Mode). CC(C)n1cc(-c2ccc(C#N)c(Cl)c2)c2ccc(NS(C)(=O)=O)cc21 [Example 50]
A) + (+ <2)

Q) Tell me measured McPhail Index** @ 10 mpk (Antagonist Mode) for CC(C)n1cc(-c2cc(F)c(C#N)c(F)c2)c2ccc(NS(C)(=O)=O)cc21 [Example 170] please.
A) +++ (+++ ≧3)

====

- tgt: human MR (mineralocorticoid receptor) (Homo sapiens, UniProt P08235)
- Sequence (P08235 whole entry): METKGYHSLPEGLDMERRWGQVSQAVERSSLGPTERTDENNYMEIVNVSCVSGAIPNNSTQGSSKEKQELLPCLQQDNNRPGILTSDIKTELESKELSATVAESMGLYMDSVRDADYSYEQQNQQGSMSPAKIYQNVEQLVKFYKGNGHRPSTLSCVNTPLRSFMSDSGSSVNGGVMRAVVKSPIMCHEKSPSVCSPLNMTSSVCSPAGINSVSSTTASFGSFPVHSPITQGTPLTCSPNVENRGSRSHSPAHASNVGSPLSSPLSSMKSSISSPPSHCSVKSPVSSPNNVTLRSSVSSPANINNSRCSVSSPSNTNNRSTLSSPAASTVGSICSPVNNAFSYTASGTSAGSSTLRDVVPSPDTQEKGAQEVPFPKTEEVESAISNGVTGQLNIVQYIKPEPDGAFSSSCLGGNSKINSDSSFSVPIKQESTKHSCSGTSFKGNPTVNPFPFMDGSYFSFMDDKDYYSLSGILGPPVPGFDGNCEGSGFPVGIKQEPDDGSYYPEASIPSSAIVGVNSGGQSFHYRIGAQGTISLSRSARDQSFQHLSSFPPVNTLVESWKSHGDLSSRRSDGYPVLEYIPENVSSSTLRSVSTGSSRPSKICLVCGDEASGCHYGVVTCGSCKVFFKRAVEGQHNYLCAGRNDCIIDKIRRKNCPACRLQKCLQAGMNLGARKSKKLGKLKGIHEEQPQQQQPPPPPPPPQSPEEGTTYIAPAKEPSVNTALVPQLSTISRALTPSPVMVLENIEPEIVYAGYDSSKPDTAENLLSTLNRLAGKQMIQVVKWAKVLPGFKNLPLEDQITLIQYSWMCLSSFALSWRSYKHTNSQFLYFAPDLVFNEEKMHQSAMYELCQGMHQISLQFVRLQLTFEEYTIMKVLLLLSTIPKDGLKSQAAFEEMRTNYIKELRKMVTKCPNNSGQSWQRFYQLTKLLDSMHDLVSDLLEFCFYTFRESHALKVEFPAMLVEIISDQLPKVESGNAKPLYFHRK
- measurement.description: MR competition binding assay (HEK293 cell lysate)
- experimental.parameters: 0.25 nM 3H-aldosterone, 293-MR lysate
assay.readout: Ki

Q) State, in one line, measured Ki of CC(C)n1cc(-c2ccc3sccc3c2)c2ccc(NS(C)(=O)=O)cc21 [Example 95]
A) 0.5 to 1 µM

Q) Consider the molecule CC(C)n1cc(-c2ccc(C#N)cc2)c2ccc(NS(C)(=O)=O)cc21 [Example 28] and give its recorded Ki.
A) > 1 µM

Next:
Q) Quick one: give measured Ki for CC(C)n1cc(-c2ccc3c(cnn3C)c2)c2ccc(NS(C)(=O)=O)cc21 [Example 107]
A) > 1 µM

Q) Return the recorded Ki value; entry: COc1ccc(-c2cn(C(C)C)c3cc(NS(C)(=O)=O)ccc23)cn1 [Example 88]
A) > 1 µM

Q) Look up and state reported Ki for Cn1cc(-c2ccc(C#N)cc2)c2ccc(NS(C)(=O)=O)cc21 [Example 25]
A) > 1 µM

Q) Fill in Ki for record CCOC(=O)c1ccc(-c2cn(C(C)C)c3cc(NS(C)(=O)=O)ccc23)cc1 [Example 74]
A) 0.1 to 0.5 µM

Q) Provide Ki value for the following molecule: CC(C)n1cc(-c2ccc3c(c2)COC3=O)c2ccc(NS(C)(=O)=O)cc21 [Example 97]
A) > 1 µM

Q) Provide one value: measured Ki of CS(=O)(=O)Nc1ccc2c(-c3ccc(C#N)cc3)cn(CC3CCCCC3)c2c1 [Example 77]
A) 0.1 to 0.5 µM

Q) Give Ki for the following molecule: CS(=O)(=O)Nc1ccc2c(-c3ccc(C#N)cc3)cn(C3CCCC3)c2c1 [Example 63]
A) > 1 µM

Q) State, in one line, measured Ki of Cn1cc(-c2ccc([N+](=O)[O-])cc2)c2ccc(NS(C)(=O)=O)cc21 [Example 30]
A) > 1 µM

Q) Complete the entry with Ki for CC(C)n1cc(-c2ccc(C#N)s2)c2ccc(NS(C)(=O)=O)cc21 [Example 43]
A) 0.1 to 0.5 µM

Q) # return recorded Ki for entry CC(C)n1cc(-c2ccc3oc(=O)ccc3c2)c2ccc(NS(C)(=O)=O)cc21 [Example 96]
A) > 1 µM

Q) // fetch Ki given entry CC(C)Cn1cc(-c2ccc(C#N)cc2)c2ccc(NS(C)(=O)=O)cc21 [Example 29]
A) 0.5 to 1 µM

Q) Given the molecule CS(=O)(=O)Nc1ccc2c(-c3ccc(C#N)cc3)cn(Cc3ccccc3)c2c1 [Example 72] , write its reported Ki.
A) < 0.05 µM

Q) Report Ki for CC(C)n1cc(-c2ccc(C#N)c(F)c2)c2ccc(NS(C)(=O)=O)cc21 [Example 38]
A) 0.5 to 1 µM

Q) Supply measured Ki of CC(C)n1cc(-c2ccccc2)c2ccc(NS(C)(=O)=O)cc21 [Example 85] in your reply.
A) 0.5 to 1 µM

Q) Note down Ki recorded for CC(C)n1cc(-c2ccc(C=NO)cc2)c2ccc(NS(C)(=O)=O)cc21 [Example 94]
A) 0.5 to 1 µM

Q) Please report the measured Ki for CC(C)n1cc(-c2ccc(C#N)cc2)c2ccc(NS(=O)(=O)C(F)(F)F)cc21 [Example 98]
A) > 1 µM

Q) Output Ki of COc1ccc(-c2cn(C(C)C)c3cc(NS(C)(=O)=O)ccc23)cc1C [Example 86]
A) > 1 µM

Q) Supply measured Ki of CC(C)n1cc(-c2ccc(O)cc2)c2ccc(NS(C)(=O)=O)cc21 [Example 93] in your reply.
A) 0.1 to 0.5 µM

Q) # return recorded Ki for input Cc1ccc(-c2cn(C(C)C)c3cc(NS(C)(=O)=O)ccc23)cc1F [Example 84]
A) 0.5 to 1 µM

Q) Identify measured Ki corresponding to Cn1cc(-c2ccc(C#N)cc2)c2ccc(NS(=O)(=O)c3cccs3)cc21 [Example 32]
A) > 1 µM

Q) Fill in Ki for record CC(C)n1cc(-c2ccc(C#N)cc2)c2ccc(NS(=O)(=O)N3CCOCC3)cc21 [Example 100]
A) > 1 µM
